- experimentalTarget: Collagenase 3 (Homo sapiens, UniProt P45452)
- protocolSummary: Inhibition of recombinant human MMP-13 assessed as substrate cleavage after 20 hrs by fluorescence assay
reportedEndpoint: IC50

>>> print(df.to_string())
                                    molecule  endpointvalue
 0  Cc1noc(C)c1CCC1CCN(S(=O)(=O)CC2(N(O)C=O)CCC2)CC1        > 10 µM
 1  Cc1noc(C)c1CCC1CCN(S(=O)(=O)CC2(N(O)C=O)CCCCCC2)CC1        > 10 µM
 2  CC(=O)N1CCC(CS(=O)(=O)N2CCC(CCc3c(C)noc3C)CC2)(N(O)C=O)CC1        > 10 µM
 3  Cc1noc(C)c1CCC1CCN(S(=O)(=O)CC2(N(O)C=O)CCN(C(=O)C3CCC3)CC2)CC1        > 10 µM
 4  Cc1cc(Cl)ccc1CCC1CCN(S(=O)(=O)CC2(N(O)C=O)CCOCC2)CC1        0.78 µM
 5  Cc1noc(C)c1CCC1CCN(S(=O)(=O)CC2(N(O)C=O)CCC(F)(F)CC2)CC1        > 10 µM
 6  Cc1cc(C)c(CCC2CCN(S(=O)(=O)CC3(N(O)C=O)CCOCC3)CC2)cn1        > 10 µM
 7  Cc1noc(C)c1CCC1CCN(S(=O)(=O)CC2(N(O)C=O)CCCCC2)CC1       > 4.1 µM
 8  Cc1noc(C)c1CCC1CCN(S(=O)(=O)CC2(N(O)C=O)CCS(=O)(=O)CC2)CC1        > 10 µM
 9  Cc1noc(C)c1CCC1CCN(S(=O)(=O)CC2(N(O)C=O)CCOC(C)(C)C2)CC1 (configuration not stated)        > 10 µM
10  Cc1noc(C)c1CCC1CCN(S(=O)(=O)CC2(N(O)C=O)CCN(C)CC2)CC1        > 10 µM
11  CS(=O)(=O)c1ccc(CCC2CCN(S(=O)(=O)CC3(N(O)C=O)CCOCC3)CC2)c(C2CC2)c1        > 10 µM
12  Cc1noc(C)c1CCC1CCN(S(=O)(=O)CC2(N(O)C=O)CCOCC2)CC1        > 31 µM
13  Cc1noc(C)c1CCC1CCN(S(=O)(=O)CC2(N(O)C=O)CCCC2)CC1        > 10 µM
14  Cc1noc(C)c1CCC1CCN(S(=O)(=O)CC2(N(O)C=O)CCN(C(=O)N3CCC3)CC2)CC1        > 10 µM
15  Cc1ccccc1CCC1CCN(S(=O)(=O)CC2(N(O)C=O)CCOCC2)CC1       > 0.6 µM
16  Cc1nsc(C)c1CCC1CCN(S(=O)(=O)CC2(N(O)C=O)CCOCC2)CC1        > 10 µM
